Assay target: human C5 (Homo sapiens, UniProt P01031)
Construct: tissue TCS Biosciences (serum); host or cells: human serum
Assay overview: SPR multi-cycle kinetics, binding to C5
Setup conditions: replicate n=2; read-out: KD
I'd appreciate it if you could supply Kd values for the items below.
Give a bare numeral; the unit nM is implied.

-- ask Can you look up Kd on human C5 (Homo sapiens, UniProt P01031) for K92 F26A: alanine mutant of K92 (CPEGWSECGVAIYGYACGRWGCGHALNSGPNISP) ?
-- reply 21.5

-- ask Can you handle K92 W21A: alanine mutant of K92 (CPEGWSECGVAIYGYACGRAGCGHFLNSGPNISP) next?
-- reply 411

====

Assay target: human C5 (Homo sapiens)
Construct: tissue TCS Biosciences (serum); host or cells: human serum
Assay overview: SPR multi-cycle kinetics, binding to C5
Setup conditions: Biacore 8K, HBS-EP pH 7.4; single-site model; mean of n=3; read-out: mean KD
Value type: Kd (µM)
Give a bare numeral; the unit µM is implied.

-- ask What value of Kd has been reported for the following substance? K92 W21A: alanine mutant of K92 (CPEGWSECGVAIYGYACGRAGCGHFLNSGPNISP)
-- reply 0.497

-- ask Can you handle K92 F26A: alanine mutant of K92 (CPEGWSECGVAIYGYACGRWGCGHALNSGPNISP) next?
-- reply 0.0188

====

Tested on: classical pathway C5b deposition (complement C5)
Assay overview: Classical pathway C5b deposition ELISA
Assay type: biochemical, human
Setup conditions: CP functional ELISA kit (Svar); peptide preincubated with human serum 15 min RT; CP 1% serum, putative 4 nM C5; n=3 (K8: n=6); ND* = Not detected; read-out: Geomean IC50
Bridges are numbered along the chain shown (N, C = ends). Where no end group is shown, it is not given here.
Value type: pIC50
Scale explanation: pIC50 corresponds to minus log10 of a concentration expressed in moles per litre.

-- ask What value of pIC50 has been reported for the following sequence? SVCPDGFDWGYGCAAGSSRFCTRHDWCCYDERADSHTYGFCTGNRVENLYFQ (disulfide 3-28, 13-21, 27-41) [K8]
-- reply 8.03

====

Tested on: classical pathway mediated C5a release (complement C5)
Assay overview: Inhibition of classical pathway mediated C5a release (ELISA)
Assay type: biochemical, human
Setup conditions: CP; C5a Human ELISA kit (Invitrogen) on activated serum from C5b ELISA plate; n=3 (K8: n=5); ND* = Not detected; read-out: Geomean IC50
Bridges are numbered along the chain shown (N, C = ends). Where no end group is shown, it is not given here.
Value type: pIC50
Scale explanation: pIC50 corresponds to minus log10 of a concentration expressed in moles per litre.

-- ask What value of pIC50 has been reported for the following sequence? SVCPDGFDWGYGCAAGSSRFCTRHDWCCYDERADSHTYGFCTGNRVENLYFQ (disulfide 3-28, 13-21, 27-41) [K8]
-- reply 8.00

====

Assay target: human C5 (Homo sapiens, UniProt P01031)
Construct: tissue TCS Biosciences (serum); host or cells: human serum
Assay overview: SPR multi-cycle kinetics, binding to C5
Setup conditions: replicate n=1; read-out: KD
I'd appreciate it if you could supply Kd values for the items below.
Give a bare numeral; the unit nM is implied.

-- ask Can you look up Kd on human C5 (Homo sapiens, UniProt P01031) for K92 F26A: alanine mutant of K92 (CPEGWSECGVAIYGYACGRWGCGHALNSGPNISP) ?
-- reply 14.9

-- ask Can you handle K92 W21A: alanine mutant of K92 (CPEGWSECGVAIYGYACGRAGCGHFLNSGPNISP) next?
-- reply 437

====

Assay target: human C5 (Homo sapiens, UniProt P01031)
Construct: tissue TCS Biosciences (serum); host or cells: human serum
Assay overview: SPR multi-cycle kinetics, binding to C5
Setup conditions: replicate n=3; read-out: KD
Value type: pKd
Scale explanation: pKd corresponds to minus log10 of a concentration expressed in moles per litre.

-- ask What value of pKd has been reported for the following substance? K92 W21A: alanine mutant of K92 (CPEGWSECGVAIYGYACGRAGCGHFLNSGPNISP)
-- reply 6.19

-- ask Can you handle K92 F26A: alanine mutant of K92 (CPEGWSECGVAIYGYACGRWGCGHALNSGPNISP) next?
-- reply 7.70

// provenance: paper PMC7972453
